System: U-2 OS
Assay: cell painting activity score (Mahalanobis distance from DMSO wells); higher = stronger morphological phenotype
Details: 2.5 µM; 24 h
attribute-measured: cell painting activity score

Oc1cccc(-c2nc(N3CCOCC3)c3oc4ncccc4c3n2)c1	11.4
COC1=C2C[C@@H](C)C[C@H](OC)[C@H](O)[C@@H](C)/C=C(\C)[C@H](OC(N)=O)[C@@H](OC)/C=C\C=C(/C)C(=O)NC(=CC1=O)C2=O	13
CC(=O)OC1C(c2ccc(=O)oc2)C2(C)CCC3C(CCC4CC(O)CCC43C)C23OC13 (stereo not given)	18
CN(C)C/C=C/C(=O)Nc1cc2c(Nc3ccc(F)c(Cl)c3)ncnc2cc1O[C@H]1CCOC1	12.2
O=C1Cc2c([nH]c3ccc(Br)cc23)-c2ccccc2N1	12.7
Cc1cc2c(C(C)C)c(O)c(O)c(C=O)c2c(O)c1-c1c(C)cc2c(C(C)C)c(O)c(O)c(C=O)c2c1O	4.3
CC1(C)CC[C@]2(C(=O)n3ccnc3)CC[C@]3(C)[C@H](C(=O)C=C4[C@@]5(C)C=C(C#N)C(=O)C(C)(C)[C@@H]5CC[C@]43C)[C@@H]2C1	35.7
O=S1(=O)CC(N2CCCC2)c2ccccc21 (stereo not given)	4.11

Q: Given the molecule CC(C)C[C@@H](C=O)NC(=O)[C@@H](CC(C)C)NC(=O)[C@H](CC(C)C)NC(=O)OCc1ccccc1 , what is its reported cell painting activity score?
Result: 5.35

Q: Given the molecule Cc1ccc(C(=O)N(CCCN)[C@@H](c2nc3cc(Cl)ccc3c(=O)n2Cc2ccccc2)C(C)C)cc1 , what is its reported cell painting activity score?
Result: 13.1

====

Tested on: U-2 OS
Test: cell painting activity score (Mahalanobis distance from DMSO wells); higher = stronger morphological phenotype
Conditions: 40 µM; 24 h
The following compounds are listed with their measured cell painting activity score values.
Please reply with the value in numeric form only.

Study these solved cases before continuing.
Cc1cc2c(C(C)C)c(O)c(O)c(C=O)c2c(O)c1-c1c(C)cc2c(C(C)C)c(O)c(O)c(C=O)c2c1O	22.1
CC(Cc1ccc(O)c(O)c1)C(C)Cc1ccc(O)c(O)c1 (configuration not stated)	17.4

Q: Given the compound CCCCCCCCCCCC1=C(O)C(=O)C=C(O)C1=O , what is its reported cell painting activity score?
Result: 22.2

Q: Given the compound CCCCCOc1ccc(/C=C\c2cccc(O)c2C(=O)O)cc1 , what is its reported cell painting activity score?
Result: 6.92

Q: Given the compound CCCCCCCCCCCCCCCc1cccc(O)c1C(=O)O , what is its reported cell painting activity score?
Result: 12.9

Q: Given the compound COc1cc(/C=C/c2cc(/C=C/c3ccc(O)c(OC)c3)n(-c3ccc(C(=O)[O-])cc3)n2)ccc1O.[Na+] , what is its reported cell painting activity score?
Result: 5.98

Q: Given the compound O=C(OCC)/C(C(OCC)=O)=C\CCCCCCCCCCCCCC , what is its reported cell painting activity score?
Result: 7.78

Q: Given the compound C=C(C)[C@@H](CC=C(C)C)C[C@@]12C[C@@H](CC=C(C)C)C(C)(C)[C@@](CC=C(C)C)(C(=O)/C(=C(\O)c3ccc(O)c(O)c3)C1=O)C2=O , what is its reported cell painting activity score?
Result: 14.9

meta.source: the supplement of paper PMC10011410
